Entries annotated with measured % Mortality Day 1
system: Tribolium castaneum; details: 5 microlitre; Day 1
Give just the number in %; leave the unit off.

In the examples that follow, each entry is paired with its recorded % Mortality Day 1.
CCCC(C)O (stereo not drawn) [2-Pentanol] ... 0.0
CC=O [Acetaldehyde] ... 36.0

Shifting focus to the compound that follows.
Given the entry CC1CC=CCC1 (stereo not drawn) [4-Methylcyclohexene] , report its measured % Mortality Day 1.
4.0
